Would you mind telling me the reported MIC of each entry?
Tested on: S. aureus C623 (MRSA)
Test: microbe, parasite or virus in culture
Conditions: C623
Numbered stars: 1 amine (or outer) side, 2 acyl side, 3 side chain; on linkers, the order of the positions; unused ones are H or OH. Square brackets hold non-standard residues; d marks the D form. Peptide text beside a SMILES is read from it. X1 = CC(C)[C@H](C)N(CC(=O)[*:2])[*:1]; Nspe = C[C@H](NCC(=O)O)c1ccccc1; Nphe = O=C(O)CNCc1ccccc1; Nlys = NCCCCNCC(=O)O
Write the number in µg/mL without appending the unit.

Task: // MIC lookup, key: C[C@@H](c1ccccc1)N(CC(N)=O)C(=O)CN(C(=O)CN(CCCCN)C(=O)CN(Cc1ccccc1)C(=O)CN(Cc1ccccc1)C(=O)CN(CCCCN)C(=O)CN(C(=O)CN(C(=O)CN(CCCCN)C(=O)CN(Cc1ccccc1)C(=O)CN(Cc1ccccc1)C(=O)CNCCCCN)[C@@H](C)c1ccccc1)[C@@H](C)c1ccccc1)[C@@H](C)c1ccccc1
Result: 2

Task: // MIC lookup, key: CC(C)[C@H](C)N(CC(=O)N(CCCCN)CC(=O)N(CC(=O)N(CC(=O)N(CCCCN)CC(=O)N(CC(=O)N(CC(=O)N(CCCCN)CC(=O)N(CC(=O)N(CC(N)=O)[C@@H](C)c1ccccc1)[C@@H](C)c1ccccc1)[C@@H](C)C(C)C)[C@@H](C)C(C)C)[C@@H](C)c1ccccc1)[C@@H](C)c1ccccc1)C(=O)CN(C(=O)CNCCCCN)[C@@H](C)C(C)C [1-Nsdp2,3,8,9, H-(NLys-Nsdp-Nsdp-NLys-Nspe-Nspe)2-NH2] (H-[Nlys][X1][X1][Nlys][Nspe][Nspe][Nlys][X1][X1][Nlys][Nspe][Nspe]-NH2)
Result: 4

Task: // MIC lookup, key: C[C@@H](c1ccccc1)N(CC(=O)N(CC(=O)N(CCCCN)CC(=O)N(CC(=O)N(CC(=O)N(CCCCN)CC(=O)N(CC(=O)N(CC(=O)N(CCCCN)CC(=O)N(CC(=O)N(CC(N)=O)Cc1ccccc1)Cc1ccccc1)Cc1ccccc1)Cc1ccccc1)Cc1ccccc1)Cc1ccccc1)Cc1ccccc1)C(=O)CNCCCCN [Peptoid 1ach-Nspe2, H-(NLys-Nspe-Npm)- (NLys-Npm-Npm)3-NH2] (H-[Nlys][Nspe][Nphe][Nlys][Nphe][Nphe][Nlys][Nphe][Nphe][Nlys][Nphe][Nphe]-NH2)
Result: 4

Task: // MIC lookup, key: C[C@H](NCC(=O)N(CCCCN)CC(=O)N(CC(=O)N(CCCCN)CC(=O)N(CCCCN)CC(=O)N(CC(=O)N(CC(=O)N(CCCCN)CC(=O)N(CC(=O)N(CCCCN)CC(=O)N(CCCCN)CC(=O)N(CC(N)=O)[C@@H](C)c1ccccc1)[C@@H](C)c1ccccc1)[C@@H](C)c1ccccc1)[C@@H](C)c1ccccc1)[C@@H](C)c1ccccc1)c1ccccc1 [1B-NLys4,10, H-(Nspe-NLys-Nspe-NLys-NLys-Nspe)2-NH2] (H-[Nspe][Nlys][Nspe][Nlys][Nlys][Nspe][Nspe][Nlys][Nspe][Nlys][Nlys][Nspe]-NH2)
Result: 256

Task: // MIC lookup, key: C[C@H](NCC(=O)N(CC(=O)N(CCCCN)CC(=O)N(CC(=O)N(CCCCN)CC(=O)N(CC(=O)N(CCCCN)CC(=O)N(CC(=O)N(CC(=O)N(CC(=O)N(CC(=O)N(CCCCN)CC(N)=O)[C@@H](C)c1ccccc1)[C@@H](C)c1ccccc1)[C@@H](C)c1ccccc1)[C@@H](C)c1ccccc1)[C@@H](C)c1ccccc1)[C@@H](C)c1ccccc1)[C@@H](C)c1ccccc1)c1ccccc1 [Peptoid 1scr, H-(Nspe)2-(NLys-Nspe)3-(Nspe)3-NLys-NH2] (H-[Nspe][Nspe][Nlys][Nspe][Nlys][Nspe][Nlys][Nspe][Nspe][Nspe][Nspe][Nlys]-NH2)
Result: 8

###

Would you mind telling me the reported MIC of each entry?
Tested on: K. pneumonia 63575 (ESBL)
Assay: microbe, parasite or virus in culture
Numbered stars: 1 amine (or outer) side, 2 acyl side, 3 side chain; on linkers, the order of the positions; unused ones are H or OH. Square brackets hold non-standard residues; d marks the D form. Peptide text beside a SMILES is read from it. X1 = CC(C)[C@H](C)N(CC(=O)[*:2])[*:1]; Nspe = C[C@H](NCC(=O)O)c1ccccc1; Nphe = O=C(O)CNCc1ccccc1; Nlys = NCCCCNCC(=O)O
Write the number in µg/mL without appending the unit.

Task: // MIC lookup, key: C[C@H](NCC(=O)N(CC(=O)N(CCCCN)CC(=O)N(CC(=O)N(CCCCN)CC(=O)N(CC(=O)N(CCCCN)CC(=O)N(CC(=O)N(CC(=O)N(CC(=O)N(CC(=O)N(CCCCN)CC(N)=O)[C@@H](C)c1ccccc1)[C@@H](C)c1ccccc1)[C@@H](C)c1ccccc1)[C@@H](C)c1ccccc1)[C@@H](C)c1ccccc1)[C@@H](C)c1ccccc1)[C@@H](C)c1ccccc1)c1ccccc1 [Peptoid 1scr, H-(Nspe)2-(NLys-Nspe)3-(Nspe)3-NLys-NH2] (H-[Nspe][Nspe][Nlys][Nspe][Nlys][Nspe][Nlys][Nspe][Nspe][Nspe][Nspe][Nlys]-NH2)
Result: 64

Task: // MIC lookup, key: C[C@@H](c1ccccc1)N(CC(N)=O)C(=O)CN(Cc1ccccc1)C(=O)CN(CCCCN)C(=O)CN(C(=O)CN(Cc1ccccc1)C(=O)CN(CCCCN)C(=O)CN(C(=O)CN(Cc1ccccc1)C(=O)CN(CCCCN)C(=O)CN(C(=O)CN(Cc1ccccc1)C(=O)CNCCCCN)[C@@H](C)c1ccccc1)[C@@H](C)c1ccccc1)[C@@H](C)c1ccccc1 [1-Npm2,5,8,11, H-(NLys-Npm-Nspe)4-NH2] (H-[Nlys][Nphe][Nspe][Nlys][Nphe][Nspe][Nlys][Nphe][Nspe][Nlys][Nphe][Nspe]-NH2)
Result: 16

Task: // MIC lookup, key: C[C@@H](c1ccccc1)N(CC(N)=O)C(=O)CN(Cc1ccccc1)C(=O)CN(CCCCN)C(=O)CN(Cc1ccccc1)C(=O)CN(Cc1ccccc1)C(=O)CN(CCCCN)C(=O)CN(Cc1ccccc1)C(=O)CN(Cc1ccccc1)C(=O)CN(CCCCN)C(=O)CN(Cc1ccccc1)C(=O)CN(Cc1ccccc1)C(=O)CNCCCCN [Peptoid 1ach-Nspe12, H-(NLys-Npm-Npm)3-(NLys-Npm-Nspe)-NH2]
Result: 32

Task: // MIC lookup, key: CC(C)[C@H](C)N(CC(=O)N(CCCCN)CC(=O)N(CC(=O)N(CC(=O)N(CCCCN)CC(=O)N(CC(=O)N(CC(=O)N(CCCCN)CC(=O)N(CC(=O)N(CC(N)=O)[C@@H](C)c1ccccc1)[C@@H](C)c1ccccc1)[C@@H](C)C(C)C)[C@@H](C)C(C)C)[C@@H](C)c1ccccc1)[C@@H](C)c1ccccc1)C(=O)CN(C(=O)CNCCCCN)[C@@H](C)C(C)C [1-Nsdp2,3,8,9, H-(NLys-Nsdp-Nsdp-NLys-Nspe-Nspe)2-NH2] (H-[Nlys][X1][X1][Nlys][Nspe][Nspe][Nlys][X1][X1][Nlys][Nspe][Nspe]-NH2)
Result: 32

Task: // MIC lookup, key: C[C@@H](c1ccccc1)N(CC(N)=O)C(=O)CN(C(=O)CN(CCCCN)C(=O)CN(Cc1ccccc1)C(=O)CN(Cc1ccccc1)C(=O)CN(CCCCN)C(=O)CN(C(=O)CN(C(=O)CN(CCCCN)C(=O)CN(Cc1ccccc1)C(=O)CN(Cc1ccccc1)C(=O)CNCCCCN)[C@@H](C)c1ccccc1)[C@@H](C)c1ccccc1)[C@@H](C)c1ccccc1 [1-Npm2,3,8,9, H-(NLys-Npm-Npm-NLys-Nspe-Nspe)2-NH2]
Result: 16

Task: // MIC lookup, key: CC(C)[C@H](C)N(CC(=O)N(CC(=O)N(CCCCN)CC(=O)N(CC(=O)N(CC(=O)N(CCCCN)CC(=O)N(CC(=O)N(CC(=O)N(CCCCN)CC(=O)N(CC(=O)N(CC(N)=O)[C@@H](C)c1ccccc1)[C@@H](C)C(C)C)[C@@H](C)c1ccccc1)[C@@H](C)C(C)C)[C@@H](C)c1ccccc1)[C@@H](C)C(C)C)[C@@H](C)c1ccccc1)C(=O)CNCCCCN [1-Nsdp2.5.8.11, H-(NLys-Nsdp-Nspe)4-NH2] (H-[Nlys][X1][Nspe][Nlys][X1][Nspe][Nlys][X1][Nspe][Nlys][X1][Nspe]-NH2)
Result: 32

Task: // MIC lookup, key: CC(C)[C@H](C)N(CC(N)=O)C(=O)CN(C(=O)CN(CCCCN)C(=O)CN(C(=O)CN(C(=O)CN(CCCCN)C(=O)CN(C(=O)CN(C(=O)CN(CCCCN)C(=O)CN(C(=O)CN(C(=O)CNCCCCN)[C@@H](C)C(C)C)[C@@H](C)C(C)C)[C@@H](C)C(C)C)[C@@H](C)C(C)C)[C@@H](C)C(C)C)[C@@H](C)C(C)C)[C@@H](C)C(C)C [Peptoid 1-Nsdpall, H-(NLys-Nsdp-Nsdp)4-NH2]
Result: 128

Task: // MIC lookup, key: C[C@@H](c1ccccc1)N(CC(N)=O)C(=O)CN(C(=O)CN(CCCCN)C(=O)CN(C(=O)CN(C(=O)CN(CCCCN)C(=O)[C@@H]1CCCN1C(=O)CN(C(=O)CN(CCCCN)C(=O)CN(C(=O)CN(C(=O)CNCCCCN)[C@@H](C)c1ccccc1)[C@@H](C)c1ccccc1)[C@@H](C)c1ccccc1)[C@@H](C)c1ccccc1)[C@@H](C)c1ccccc1)[C@@H](C)c1ccccc1 [Peptoid 1-Pro6] (H-[Nlys][Nspe][Nspe][Nlys][Nspe]P[Nlys][Nspe][Nspe][Nlys][Nspe][Nspe]-NH2)
Result: 32

Task: // MIC lookup, key: C[C@@H](c1ccccc1)N(CC(N)=O)C(=O)CN(C(=O)CN(CCCCN)C(=O)CN(C(=O)CN(C(=O)CN(CCCCN)C(=O)CN(C(=O)CN(C(=O)CN(CCCCN)C(=O)[C@@H]1CCCN1C(=O)CN(C(=O)CNCCCCN)[C@@H](C)c1ccccc1)[C@@H](C)c1ccccc1)[C@@H](C)c1ccccc1)[C@@H](C)c1ccccc1)[C@@H](C)c1ccccc1)[C@@H](C)c1ccccc1 [Peptoid 1-Pro3, H-NLys-Nspe-L-Pro-(NLys-Nspe-Nspe)3-NH2] (H-[Nlys][Nspe]P[Nlys][Nspe][Nspe][Nlys][Nspe][Nspe][Nlys][Nspe][Nspe]-NH2)
Result: 32
